Items are presented alongside their recorded PEG-peptide IC50.
- target_desc: CGRP1 receptor (CRLR/RAMP1 complex) of human neuroblastoma SK-N-MC cells (human, UniProt Q16602 23-461; O60894 27-148)
- Sequence (Q16602 23-461, chain 1 of 2): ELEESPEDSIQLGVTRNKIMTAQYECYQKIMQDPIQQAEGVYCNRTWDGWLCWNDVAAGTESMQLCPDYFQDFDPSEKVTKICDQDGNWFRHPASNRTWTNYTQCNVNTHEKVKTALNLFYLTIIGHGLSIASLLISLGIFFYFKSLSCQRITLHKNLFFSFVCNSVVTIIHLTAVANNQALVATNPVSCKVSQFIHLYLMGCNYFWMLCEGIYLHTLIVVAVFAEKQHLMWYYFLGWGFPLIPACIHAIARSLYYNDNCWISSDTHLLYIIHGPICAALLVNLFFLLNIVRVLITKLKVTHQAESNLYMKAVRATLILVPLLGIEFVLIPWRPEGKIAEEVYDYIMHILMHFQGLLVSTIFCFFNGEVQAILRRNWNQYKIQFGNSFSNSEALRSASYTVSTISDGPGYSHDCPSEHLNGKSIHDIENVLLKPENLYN
- Sequence (O60894 27-148, chain 2 of 2): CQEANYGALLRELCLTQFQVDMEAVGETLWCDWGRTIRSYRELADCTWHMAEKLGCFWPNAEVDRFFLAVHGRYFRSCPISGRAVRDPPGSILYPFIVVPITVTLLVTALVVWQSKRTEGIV
- assay_remarks: cell-based or functional assay
Bridge positions count the residues as written; N and C are the ends. Square brackets hold non-standard residues; d marks the D form. hArg = N=C(N)NCCCC[C@H](N)C(=O)O; Cit = NC(=O)NCCC[C@H](N)C(=O)O
quantity_kind: PEG-peptide IC50

{"columns": ["binder", "measured_value"],
 "data": [
  ["Ac-WVEHRLKGLLS[Cit]SGGVV[hArg]KNFVPTDVGPFAF-NH2 (lactam 3-7; also: PEG-conjugated, in most cases at Lys25) [PEG-peptide of SEQ ID NO 906]", "2.29 nM"],
  ["WVTHXLAGLLSRSGGVVRKNFVPTDVGPFAF (Ac-WVTH[Cit]LAGLLSRSGGVVRKNFVPTDVGPFAF-NH2; PEG-conjugated (Table 2C: in most cases at Lys^25)) [PEG-peptide of SEQ ID NO 861]", "2.08 nM"],
  ["Ac-WVTH[Cit]LAGLAS[Cit]SGGVVRKNFVPTDVGPFAF-NH2 (also: PEG-conjugated, in most cases at Lys25) [PEG-peptide of SEQ ID NO 870]", "> 1000 nM"],
  ["WVTHXLAGLLSXSGGVVXKNFVPTDVGPFAF (Ac-WVTH[hCit]LAGLLS[hCit]SGGVV[hArg]KNFVPTDVGPFAF-NH2; PEG-conjugated (Table 2C: in most cases at Lys^25)) [PEG-peptide of SEQ ID NO 886]", "22.7 nM"],
  ["WVTHXLAGLLSXSGGVVXKNXVPTDVGPXAF (Ac-WVTH[Cit]LAGLLS[Cit]SGGVV[hArg]KN[pI-Phe]VPTDVGP[pI-Phe]AF-NH2; PEG-conjugated (Table 2C: in most cases at Lys^25)) [PEG-peptide of SEQ ID NO 928]", "11.4 nM"],
  ["Ac-WVTHQLAGLLS[Cit]SGGVV[hArg]KNFVPTDVGPFAF-NH2 (also: PEG-conjugated, in most cases at Lys25) [PEG-peptide of SEQ ID NO 884]", "8.87 nM"],
  ["Ac-WVEH[Cit]LKGLLS[Cit]SGGVV[hArg]KNFVPTDVGPFAF-NH2 (lactam 3-7; also: PEG-conjugated, in most cases at Lys25) [PEG-peptide of SEQ ID NO 907]", "4.87 nM"],
  ["WVTHXLAGLLSXSGGVVXKNFVPTDVGPXAF (Ac-WVTH[Cit]LAGLLS[Cit]SGGVV[hArg]KNFVPTDVGP[1-Nal]AF-NH2; PEG-conjugated (Table 2C: in most cases at Lys^25)) [PEG-peptide of SEQ ID NO 927]", "2.54 nM"],
  ["Ac-WVEHRLKGLLSRSGGVVRKNFVPTDVGPFAF-NH2 (lactam 3-7; also: PEG-conjugated, in most cases at Lys25) [PEG-peptide of SEQ ID NO 891]", "3.71 nM"],
  ["Ac-WVEH[hArg]LKGLLS[Cit]SGGVVRKNFVPTDVGPFAF-NH2 (lactam 3-7; also: PEG-conjugated, in most cases at Lys25) [PEG-peptide of SEQ ID NO 894]", "3.54 nM"],
  ["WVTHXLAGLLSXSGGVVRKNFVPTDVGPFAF (Ac-WVTH[hArg]LAGLLS[hArg]SGGVVRKNFVPTDVGPFAF-NH2; PEG-conjugated (Table 2C: in most cases at Lys^25)) [PEG-peptide of SEQ ID NO 866]", "0.37 nM"]
]}
